TESTED SYSTEM: DYRK3 (human)
PROTOCOL DETAILS: radiometric filter-binding kinase assay
ASSAY SETUP: compound 10.0 µM
Give 1 when the value for residual activity is at least 70%. Give -1 when it is less.

Known results for compounds:
INSERT INTO measurements (compound, group_label) VALUES
  ('NC(=O)c1cc(-c2ccnc(NC3CCCCC3)c2)nc(N2CCNCC2)c1', -1),
  ('NC(=O)c1c(NC(=O)C2CC2)sc2c1CCCC2', 1),
  ('Cc1cccc(Nc2nn(C)c3ncnc(N)c23)c1', 1),
  ('Cc1nc(-c2ccc(OCC(C)C)c(C#N)c2)sc1C(=O)O', -1),
  ('NC(=O)c1ccc(-c2ccc(Oc3cncc4sc(-c5nn[nH]n5)cc34)cc2)cc1', -1);

Given the entry CC(C)C[C@H](NC(=O)CNC(=O)c1cc(Cl)ccc1Cl)B1OC(=O)CC(CC(=O)O)(C(=O)O)O1 (stereo partly drawn) , answer whether its residual activity meets or surpasses 70%.
1

Evaluate NS(=O)(=O)OC[C@@H]1C[C@@H](n2ccc3c(N[C@H]4CCc5ccccc54)ncnc32)C[C@@H]1O : residual activity at minimum 70%?
1

----------
System: SGK1 (human), O00141 [S422D]
Sequence (O00141 whole entry S422D, looked up): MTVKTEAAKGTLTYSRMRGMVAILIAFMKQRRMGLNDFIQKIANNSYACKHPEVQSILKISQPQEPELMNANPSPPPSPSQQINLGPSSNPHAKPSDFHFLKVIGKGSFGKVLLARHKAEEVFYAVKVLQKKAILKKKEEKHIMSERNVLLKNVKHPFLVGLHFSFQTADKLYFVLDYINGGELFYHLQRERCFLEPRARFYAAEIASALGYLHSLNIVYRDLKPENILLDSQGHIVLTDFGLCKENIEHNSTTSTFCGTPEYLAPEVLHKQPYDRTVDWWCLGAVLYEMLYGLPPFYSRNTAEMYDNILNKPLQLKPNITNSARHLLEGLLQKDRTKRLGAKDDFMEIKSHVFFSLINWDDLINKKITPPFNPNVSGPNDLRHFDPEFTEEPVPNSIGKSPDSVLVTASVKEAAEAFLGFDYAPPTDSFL
PROTOCOL DETAILS: radiometric filter-binding kinase assay
ASSAY SETUP: compound 0.1 µM
Overview of reported residual activity across a group of compounds:
Reply numerically in %, unit not repeated.

// known answers, use as guide
INSERT INTO results (compound, observed_value) VALUES
  ('O=C(NCCCNc1nc(Nc2cccc(CN3CCOCC3)c2)ncc1C1CC1)C1CCC1', 81),
  ('O=C(O)c1ccc(-c2c[nH]c3ncc(-c4ccccc4)cc23)cc1C1CCCC1', 56);

Which residual activity reading was recorded for the compound CNc1nc(-c2ccc3c(N)n[nH]c3c2)cc(N2C[C@@H](C(=O)NC3CCCCC3)CC[C@H]2C)n1 ?
96

What value of measured residual activity is listed for COc1ccc2c(c1)c1c3c(c4c5ccccc5n(C)c4c1n2CC(O)CN(C)C)C(=O)NC3=O (centres undefined) ?
69

For the compound CN1CCN(CCOc2cc(OC3CCOCC3)c3c(Nc4c(Cl)ccc5c4OCO5)ncnc3c2)CC1 , what residual activity is on record?
112

Entry under review: COc1ccc(-n2ncc3cnc(Nc4cc(OC)c(OC)c(OCCCN5CCN(C)CC5)c4)nc32)cc1 . Reported residual activity?
107

Dear colleague, I am looking for the recorded residual activity of the following compound: O=C(N[C@@H](COc1ccc2[nH]c(=O)[nH]c2c1)c1ccccc1)c1cccn(Cc2ccc(F)c(F)c2)c1=O
106

Suppose we examine the compound CNC(=O)C1[C@H]2O[C@@](C)([C@@H]1N)n1c3ccccc3c3c4c(c5c6ccccc6n2c5c31)C(=O)NC4 (some centres undefined) ; what residual activity value has been reported?
32

I have this compound here, CCc1cncnc1N1CCN(Cc2nc3cc(C(F)(F)F)ccc3[nH]2)CC1 , and I need its recorded residual activity.
106

----------
We begin with a simple list: items and their reported residual activity.
TESTED SYSTEM: CLK2 (human) (UniProt P49760)
Sequence (P49760 whole entry, looked up): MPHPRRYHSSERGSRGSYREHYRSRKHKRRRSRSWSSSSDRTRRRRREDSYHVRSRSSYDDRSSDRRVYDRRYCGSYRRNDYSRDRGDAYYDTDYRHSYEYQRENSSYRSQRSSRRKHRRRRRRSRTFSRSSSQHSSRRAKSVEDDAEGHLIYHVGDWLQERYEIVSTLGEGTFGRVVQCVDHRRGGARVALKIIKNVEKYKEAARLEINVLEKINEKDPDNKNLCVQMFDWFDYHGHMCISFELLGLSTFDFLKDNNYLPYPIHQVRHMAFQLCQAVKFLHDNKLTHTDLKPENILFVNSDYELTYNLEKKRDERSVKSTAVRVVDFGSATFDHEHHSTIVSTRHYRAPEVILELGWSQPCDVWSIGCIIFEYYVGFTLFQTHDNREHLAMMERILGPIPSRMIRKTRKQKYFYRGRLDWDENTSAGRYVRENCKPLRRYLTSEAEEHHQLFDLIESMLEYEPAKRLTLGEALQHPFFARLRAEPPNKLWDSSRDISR
PROTOCOL DETAILS: radiometric filter-binding kinase assay
ASSAY SETUP: compound 10.0 µM
Write the value in % as a bare number.

Below are worked cases with known answers.
INSERT INTO measurements (compound, tested_system, recorded_endpoint, observed_value) VALUES
  ('NC(=O)c1cc(-c2ccnc(NC3CCCCC3)c2)nc(N2CCNCC2)c1', 'CLK2 (human) (UniProt P49760)', 'residual activity', 51),
  ('Cc1ccc(-c2ccc3c(ccc4sc5c(c43)NC[C@@H](C)NC5=O)n2)cn1', 'CLK2 (human) (UniProt P49760)', 'residual activity', 9);

I am curious: what residual activity value has been reported for CC(C)C[C@H](NC(=O)CNC(=O)c1cc(Cl)ccc1Cl)B1OC(=O)CC(CC(=O)O)(C(=O)O)O1 (stereo partly drawn) ?
79

----------
System: LCK (mouse)
PROTOCOL DETAILS: radiometric filter-binding kinase assay
ASSAY SETUP: compound 10.0 µM; accession and sequence are those of the human protein
RECORDED ENDPOINT: residual activity (%)
The answer is to be given in %; state only the numeric part.

Solved entries:
INSERT INTO assay_data (molecule, observed_value) VALUES
  ('O=C(NOC[C@H](O)CO)c1ccc(F)c(F)c1Nc1ccc(I)cc1Cl', 109),
  ('Oc1ccc(/C=C/c2cc(O)cc(O)c2)cc1', 97),
  ('Cn1nc(Nc2ccc(F)cc2)c2c(N)ncnc21', 81),
  ('CC(C)C[C@H](NC(=O)CNC(=O)c1cc(Cl)ccc1Cl)B1OC(=O)CC(CC(=O)O)(C(=O)O)O1 (some centres not stated)', 81),
  ('NC(=O)c1cc2c(-c3cccc(-c4ccccc4)c3)cnc(N)c2s1', 67),
  ('Cc1ccc(Sc2cnc(Nc3cccc(Br)n3)s2)cc1C(=O)N1CCN(C(=O)CN)CC1', 5),
  ('Cc1ccc(=O)n(-c2ccccc2)c1', 102),
  ('O=C(N[C@@H](COc1ccc2[nH]c(=O)[nH]c2c1)c1ccccc1)c1cccn(Cc2ccc(F)c(F)c2)c1=O', 91),
  ('C=CC(=O)N1CCC[C@@H](n2nc(-c3ccc(Oc4ccccc4)cc3)c3c(N)ncnc32)C1', 9),
  ('Cc1ccc2c(c1)C(=O)[C@@]1(O)CCN(c3ccccc3)C1=N2', 106);

Item under review: N#Cc1c(O)c2c(-c3ccc(-c4ccccc4O)cc3)csc2[nH]c1=O . Reported residual activity?
88

State the recorded residual activity for this entry: O=c1c(O)c(-c2ccc(O)c(O)c2)oc2cc(O)c(O)c(O)c12
95

Which residual activity value is on record for c1ccc2c(-c3cnn4cc(-c5ccc(N6CCNCC6)cc5)cnc34)ccnc2c1 ?
7

Fill in the blank: the reported residual activity of Nc1cccc2c1CN(C1CCC(=O)NC1=O)C2=O (configuration not stated) is ____.
99

Fill in the blank: the reported residual activity of CNc1nc(-c2ccc3c(N)n[nH]c3c2)cc(N2C[C@@H](C(=O)NC3CCCCC3)CC[C@H]2C)n1 is ____.
99

Consider the molecule NC(=O)c1c(NC(=O)C2CC2)sc2c1CCCC2 and give its measured residual activity.
77

Look up residual activity: CCc1cncnc1N1CCN(Cc2nc3cc(C(F)(F)F)ccc3[nH]2)CC1
88

Which residual activity value is on record for NCC(=O)Nc1ccc(-n2nc(C(F)(F)F)cc2-c2ccc3c(ccc4ccccc43)c2)cc1 ?
247

Which residual activity value belongs to O=C1NC(=S)N[C@@H]1Cc1c[nH]c2ccccc12 ?
95

# get_value(readout='residual activity', item= Cc1cccc(Nc2nn(C)c3ncnc(N)c23)c1 )
131

----------
Each record here notes measured residual activity.
TESTED SYSTEM: PIM2 (human)
PROTOCOL DETAILS: radiometric filter-binding kinase assay
ASSAY SETUP: compound 10.0 µM
// units = %; emit number, no label

Worked examples follow.
INSERT INTO measurements (compound, observed_value) VALUES
  ('C[C@H]1CCCC(=O)CCC/C=C/c2cc(O)cc(O)c2C(=O)O1', 45),
  ('CC(C)C[C@H](NC(=O)CNC(=O)c1cc(Cl)ccc1Cl)B1OC(=O)CC(CC(=O)O)(C(=O)O)O1 (stereo not given in full)', 94);

# query: residual activity | item Cc1ccc(-c2ccc3c(ccc4sc5c(c43)NC[C@@H](C)NC5=O)n2)cn1 | system: PIM2 (human)
66

Tell me reported residual activity for O=C1Nc2nc(-c3c(O)cccc3OCC3CC3)cc(C3CCCNC3)c2CO1 (stereo not given) , tested with PIM2 (human).
40

Lab note: need residual activity for O=C(O)c1ccc(-c2c[nH]c3ncc(-c4ccccc4)cc23)cc1C1CCCC1 on PIM2 (human), anyone have it?
75

What reported residual activity corresponds to COc1cc2ncn(-c3cc(OCc4ccccc4S(C)(=O)=O)c(C#N)s3)c2cc1OC on PIM2 (human)?
78

----------
Listing of entries alongside the reported residual activity.
TESTED SYSTEM: CSNK1G2 (human) (UniProt P78368)
Sequence (P78368 whole entry, looked up): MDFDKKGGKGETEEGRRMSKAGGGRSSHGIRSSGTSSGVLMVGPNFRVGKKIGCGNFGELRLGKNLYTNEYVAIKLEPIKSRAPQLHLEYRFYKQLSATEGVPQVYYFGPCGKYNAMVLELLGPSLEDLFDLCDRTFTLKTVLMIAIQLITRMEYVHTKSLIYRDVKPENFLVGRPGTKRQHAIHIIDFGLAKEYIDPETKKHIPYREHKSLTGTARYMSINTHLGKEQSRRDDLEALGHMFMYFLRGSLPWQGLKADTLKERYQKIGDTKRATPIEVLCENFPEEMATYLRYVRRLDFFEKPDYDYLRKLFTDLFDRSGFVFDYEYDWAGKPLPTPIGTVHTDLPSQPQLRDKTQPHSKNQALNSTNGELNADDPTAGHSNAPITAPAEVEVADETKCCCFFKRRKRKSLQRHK
PROTOCOL DETAILS: radiometric filter-binding kinase assay
ASSAY SETUP: compound 0.1 µM
Param answer (str): number followed by unit.

Would you please look over these solved cases?
INSERT INTO measurements (compound, observed_value) VALUES
  ('CC1=C(CO)C(=O)O[C@@H]([C@@H](C)[C@H]2CC[C@H]3[C@@H]4C[C@H]5O[C@]56[C@@H](O)C=CC(=O)[C@]6(C)C4CC[C@]23C)C1 (some centres undefined)', '109%'),
  ('Cc1cc(NC(=O)c2cccc(NC(=O)/C=C/CN(C)C)c2)ccc1Nc1nccc(-c2cccnc2)n1', '109%'),
  ('CN(C)C/C=C/C(=O)Nc1cccc(C(=O)Nc2ccc(Nc3nccc(-c4cccnc4)n3)cc2)c1', '88%');

Consider the record given below.
Looking for the measured residual activity of CNC(=O)C1[C@H]2O[C@@](C)([C@@H]1N)n1c3ccccc3c3c4c(c5c6ccccc6n2c5c31)C(=O)NC4 (some centres undefined) , can you help?
97%

Values from the kinase profiling compilation of Christmann-Franck et al. (2016)
